Target: T1, sIL-6R (soluble IL-6 receptor; SBH Sciences) (human, UniProt P08887 20-365)
T1 construct: also called human IL-6R
T1 sequence: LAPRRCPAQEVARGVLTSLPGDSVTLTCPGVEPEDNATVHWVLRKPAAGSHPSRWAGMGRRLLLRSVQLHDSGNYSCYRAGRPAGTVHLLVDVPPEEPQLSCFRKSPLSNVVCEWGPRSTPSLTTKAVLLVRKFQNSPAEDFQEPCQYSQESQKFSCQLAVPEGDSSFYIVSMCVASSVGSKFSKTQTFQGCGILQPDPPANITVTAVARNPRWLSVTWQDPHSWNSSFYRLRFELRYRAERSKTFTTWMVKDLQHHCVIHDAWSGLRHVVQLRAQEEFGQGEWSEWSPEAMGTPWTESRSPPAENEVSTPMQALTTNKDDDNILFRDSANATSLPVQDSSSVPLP
Test: SPR; ratio of KD at pH 6.0 to KD at pH 7.4
Method: All SPR measurements were performed on a BIAcore 3000 instrument (GE Biosciences, Piscataway, N.J.). BIAcore Software-BIAcore 3000 Control Software V3.2 was used for the operation and control of the BIAcore 3000 instrument. […] Data was analyzed by using the Kinetics Wizard and the manual fitting programs that are both included with the BiaEvaluation Software V4.1. […]
measurementLabel: pH dependence (Fold of affinity decrease) (fold)
Write the value in fold as a bare number.

# example entries with known answers
// query pH dependence (Fold of affinity decrease) value for entry 237# (antibody, human IgG1, kappa, V domains shown, also called Sample # 237) VH: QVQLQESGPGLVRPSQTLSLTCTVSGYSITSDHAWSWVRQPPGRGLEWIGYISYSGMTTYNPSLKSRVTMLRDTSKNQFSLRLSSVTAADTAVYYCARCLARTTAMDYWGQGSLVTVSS VL: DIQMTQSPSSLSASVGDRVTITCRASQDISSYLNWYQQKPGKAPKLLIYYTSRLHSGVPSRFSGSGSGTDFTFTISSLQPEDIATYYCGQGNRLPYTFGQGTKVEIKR
2.63

// query pH dependence (Fold of affinity decrease) value for entry 205# (antibody, human IgG1, kappa, V domains shown) VH: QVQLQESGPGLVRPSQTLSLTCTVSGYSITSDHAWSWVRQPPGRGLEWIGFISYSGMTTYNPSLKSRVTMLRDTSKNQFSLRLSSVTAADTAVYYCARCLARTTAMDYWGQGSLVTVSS VL: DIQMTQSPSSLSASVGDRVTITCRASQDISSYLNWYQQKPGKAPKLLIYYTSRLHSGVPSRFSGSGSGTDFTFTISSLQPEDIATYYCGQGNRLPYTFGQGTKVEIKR
4.59

// next entry
// query pH dependence (Fold of affinity decrease) value for entry 202# (antibody, human IgG1, kappa, V domains shown) VH: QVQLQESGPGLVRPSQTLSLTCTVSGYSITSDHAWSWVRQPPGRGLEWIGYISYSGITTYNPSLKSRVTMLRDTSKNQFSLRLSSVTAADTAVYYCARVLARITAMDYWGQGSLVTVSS VL: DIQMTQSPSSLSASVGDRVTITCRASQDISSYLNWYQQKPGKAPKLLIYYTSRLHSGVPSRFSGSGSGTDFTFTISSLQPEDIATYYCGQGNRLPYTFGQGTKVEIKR
0.74

Cited source for all entries: patent US20190315854A1
